Biological target: Human α2δ-1 subunit of Cav2.2 calcium channel (Homo sapiens, UniProt P54289)
Sequence (P54289 25-1103): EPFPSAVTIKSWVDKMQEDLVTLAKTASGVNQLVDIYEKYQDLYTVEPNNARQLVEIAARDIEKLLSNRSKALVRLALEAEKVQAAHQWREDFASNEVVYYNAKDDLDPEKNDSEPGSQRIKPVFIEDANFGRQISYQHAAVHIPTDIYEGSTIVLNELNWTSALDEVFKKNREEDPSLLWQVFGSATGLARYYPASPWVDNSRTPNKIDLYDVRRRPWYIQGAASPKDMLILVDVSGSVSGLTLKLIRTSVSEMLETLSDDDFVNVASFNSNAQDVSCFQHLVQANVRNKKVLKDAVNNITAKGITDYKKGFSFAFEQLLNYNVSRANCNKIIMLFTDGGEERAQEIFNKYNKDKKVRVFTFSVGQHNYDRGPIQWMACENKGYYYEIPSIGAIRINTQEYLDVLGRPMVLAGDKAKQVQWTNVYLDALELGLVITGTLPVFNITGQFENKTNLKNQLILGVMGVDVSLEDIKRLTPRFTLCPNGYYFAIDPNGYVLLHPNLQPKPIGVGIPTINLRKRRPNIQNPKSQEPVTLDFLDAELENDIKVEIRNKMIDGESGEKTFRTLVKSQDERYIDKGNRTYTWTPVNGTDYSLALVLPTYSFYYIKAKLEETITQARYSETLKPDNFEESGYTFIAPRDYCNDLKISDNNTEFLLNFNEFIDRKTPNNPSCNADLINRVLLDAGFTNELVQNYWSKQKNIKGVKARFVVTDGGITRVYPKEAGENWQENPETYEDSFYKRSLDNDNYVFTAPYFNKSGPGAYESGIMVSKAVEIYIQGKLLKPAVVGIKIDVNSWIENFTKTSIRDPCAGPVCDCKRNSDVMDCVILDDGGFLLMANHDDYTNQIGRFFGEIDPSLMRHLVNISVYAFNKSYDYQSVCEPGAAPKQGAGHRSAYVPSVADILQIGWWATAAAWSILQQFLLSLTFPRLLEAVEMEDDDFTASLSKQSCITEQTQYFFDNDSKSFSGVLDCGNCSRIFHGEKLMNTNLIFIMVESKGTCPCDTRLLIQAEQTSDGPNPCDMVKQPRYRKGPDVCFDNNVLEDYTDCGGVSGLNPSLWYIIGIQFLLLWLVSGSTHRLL
Assay: Human α2δ-1 subunit of Cav2.2 calcium channel assay ([3H]-gabapentin binding)
Conditions: binding to the α2δ-1 subunit of voltage-gated calcium channels, expressed as Ki class; + also covers inhibition between 1% and 50%
Description: Human α2δ-1 Subunit of Cav2.2 Calcium Channel Assay Human α2δ-1 enriched membranes (2.5 μg) were incubated with 15 nM of radiolabeled [^3H]-Gabapentin in assay buffer containing Hepes-KOH 10 mM. pH 7.4. NSB (non specific binding) was measured by adding 10 μM pregabalin. […] Filter plates were dried at 60° C. for 1 h and 30 μL of scintillation cocktail were added to each well before radioactivity reading. Readings were performed in a Trilux 1450 Microbeta radioactive counter (Perkin Elmer).

Compound	Ki
CCCC(c1nc2c(C)cc(Br)cc2c(=O)n1CC)N1CCCN(C)CC1 (stereo not shown)	> 5000 nM
CCC[C@H](c1nc2ccc(Br)cc2c(=O)n1CC)N1CCN[C@@H](C)CC1	< 500 nM
CCC[C@@H](c1nc2ccc(Br)cc2c(=O)n1CC)N1CCN(C)C[C@H](CO)C1	500 to 5000 nM
CCC[C@@H](c1nc2cc(Cl)c(Cl)cc2c(=O)n1CC)N1CCNC[C@H](C)C1	500 to 5000 nM
CCCC(c1nc2cccc(Br)c2c(=O)n1CC)N1CCCN(C)CC1 (stereo not shown)	500 to 5000 nM
CCCC(c1nc2cc(C)c(Br)cc2c(=O)n1CC)N1CCCNCC1 (stereo not shown)	< 500 nM
CCC[C@H](c1nc2c(F)cc(Br)cc2c(=O)n1CC)N1CCCN(C)CC1	< 500 nM
CCCC(c1nc2ccc(Br)cc2c(=O)n1CC)N1CCCN(C)CC1 (stereo not shown)	< 500 nM
CCCC(c1nc2cc(F)c(Br)cc2c(=O)n1CCC)N1CCCN(CC)CC1 (stereo not shown)	< 500 nM
CCC[C@H](c1nc2c(F)cc(F)cc2c(=O)n1CC)N1CCCN(C)CC1	< 500 nM
CCC[C@@H](c1nc2ccncc2c(=O)n1CC)N1CCNC[C@H](C)C1	> 5000 nM
CCC[C@@H](c1nc2ccc(Cl)cc2c(=O)n1CCC)N1CCCN(C)CC1	> 5000 nM
CCC[C@@H](c1nc2ccc(Br)cc2c(=O)n1CC)N1CCCN[C@H](C)C1	> 5000 nM
